So I've got a bunch of compounds here, and I need their z-score values.
- Assay comment: S. cerevisiae growth modulation with rapamycin, primary screen, strain BY4716, OD600, 96 h (AID 1091); note: test concentration not given here
- Conditions used: higher = more signal, called active from +8 up or from −8 down
One number for each entry.

Examples from the recorded data:
{"columns": ["Mol smiles", "z-score"],
 "data": [
  ["Cc1ccc(S[C@]2(C(=O)NCC(C)C)CC(=O)N(Cc3cc(C(F)(F)F)cc(C(F)(F)F)c3)[C@@H]2c2ccc(CO)cc2I)cc1", 0.651],
  ["COCC(=C=CC[C@@H](O)c1ccccc1OCCO)C[C@@H](O)c1cc(Cl)cc(Cl)c1O", 0.0403],
  ["C=CCOC(=O)[C@@H]1[C@H]2C(=O)O[C@H](c3ccccc3)[C@H](c3ccccc3)N2[C@H](c2ccc(OCCOC(=O)[C@@H]3C[C@@H]4C(=O)N[C@@H](CCCCN(C)C)C(=O)N4[C@@H]3c3ccc(O)cc3)cc2)[C@@]12C(=O)Nc1ccc(I)cc12", 1.51],
  ["COCC(=C=CC[C@H](O)c1ccccc1OCCO)C[C@H](O)c1cc(Cl)cc(Cl)c1O", -4.61],
  ["CCCC[C@@H]1C[C@H]1[C@@H](NC(=O)c1ccco1)c1ccc(Cl)cc1", 0.384],
  ["CCOC(=O)C[C@H]1[C@H](OC(=O)c2cc3ccccc3oc2=O)[C@@H](NC(=O)C2CCCCC2)c2cc(OCCCO)ccc2N1C(=O)c1ccccc1", -0.0843]
]}

Your task in this section: give z-score for each listed record.
1. C=C(COC)/C(=C/C[C@@H](OC(C)=O)c1ccc(CO)o1)c1cnc2ccccc2c1
2. CCCC[C@@H]1C[C@H]1[C@@H](NC(=O)c1ccco1)c1ccc(C(=O)OC)cc1

[reply]
0.951
0.06
